# Tested on: Karpas299
# assay procedure: MTT antiproliferative assay, Karpas299 cells
# Assay type: cell-based
# setup conditions: Homo sapiens, KARPAS-299
reported endpoint: IC50 (µg/mL)

Sample records with IC50:
compound	reported measurement
CC1(C)C2CC[C@]3(C)[C@H](C(=O)C=C4[C@@H]5C[C@@](C)(C(=O)O)CC[C@]5(C)CC[C@]43C)[C@@]2(C)CC[C@@H]1OC(=O)Nc1ccc(Cl)c(C(F)(F)F)c1 (some centres unmarked)	18.6
Cc1cc(C)cc(NC(=O)O[C@H]2CC[C@@]3(C)C(CC[C@]4(C)[C@@H]3C(=O)C=C3[C@@H]5C[C@@](C)(C(=O)O)CC[C@]5(C)CC[C@]34C)C2(C)C)c1 (some centres unmarked)	11.4
CC1(C)C2CC[C@]3(C)[C@H](C(=O)C=C4[C@@H]5C[C@@](C)(C(=O)O)CC[C@]5(C)CC[C@]43C)[C@@]2(C)CC[C@@H]1OC(=O)Nc1cccc(Cl)c1 (some centres unmarked)	7.31

a = CC1(C)C2CC[C@]3(C)[C@H](C(=O)C=C4[C@@H]5C[C@@](C)(C(=O)O)CC[C@]5(C)CC[C@]43C)[C@@]2(C)CC[C@@H]1OC(=O)Nc1cc(C(F)(F)F)cc(C(F)(F)F)c1 (some centres unmarked)
b = CC1(C)C2CC[C@]3(C)[C@H](C(=O)C=C4[C@@H]5C[C@@](C)(C(=O)O)CC[C@]5(C)CC[C@]43C)[C@@]2(C)CC[C@@H]1OC(=O)Nc1cc(Cl)cc(Cl)c1 (some centres unmarked)
Ask: In the pair a and b , the larger recorded IC50 belongs to which? Identify your pick by its label.
Result: b

====

# Tested on: MCF-7
# assay procedure: MTT antiproliferative assay, MCF-7 cells
# Assay type: cell-based
# setup conditions: Homo sapiens, MCF7; MCF-7, MTT
reported endpoint: IC50 (µg/mL)

compound	reported measurement
CC1(C)C2CC[C@]3(C)[C@H](C(=O)C=C4[C@@H]5C[C@@](C)(C(=O)O)CC[C@]5(C)CC[C@]43C)[C@@]2(C)CC[C@@H]1OC(=O)Nc1cccc(Cl)c1 (stereo partly drawn)	8.51
Cc1cc(C)cc(NC(=O)O[C@H]2CC[C@@]3(C)C(CC[C@]4(C)[C@@H]3C(=O)C=C3[C@@H]5C[C@@](C)(C(=O)O)CC[C@]5(C)CC[C@]34C)C2(C)C)c1 (stereo partly drawn)	7.86

====

# Tested on: HT29
# assay procedure: MTT antiproliferative assay, HT29 cells
# Format: cell-based
# setup conditions: Homo sapiens, HT-29; HT29, 2 μg/mL, 48 h, MTT; read-out: Antiproliferative activity (growth inhibition, %)
reported endpoint: inhibition at 2 µg/mL (%)
A number alone suffices; assume %.

Known inhibition at 2 µg/mL results, listed for orientation:
compound	study system	inhibition at 2 µg/mL, %
CC1(C)C2CC[C@]3(C)[C@H](C(=O)C=C4[C@@H]5C[C@@](C)(C(=O)O)CC[C@]5(C)CC[C@]43C)[C@@]2(C)CC[C@@H]1OC(=O)Nc1ccc(Cl)c(C(F)(F)F)c1 (stereo partly shown)	HT29	14.1
CC1(C)C2CC[C@]3(C)[C@H](C(=O)C=C4[C@@H]5C[C@@](C)(C(=O)O)CC[C@]5(C)CC[C@]43C)[C@@]2(C)CC[C@@H]1OC(=O)CN1CCC(C(N)=O)CC1 (stereo partly shown)	HT29	0
CC1(C(=O)N2CCOCC2)CCC2(C)CCC3(C)C(=CC(=O)C4C5(C)CCC(OC(=O)Nc6ccc(OC(F)(F)F)cc6)C(C)(C)C5CCC43C)C2C1 (stereo not shown)	HT29	7.12
C[C@@H](Oc1cc(-c2cnn(C3CCNCC3)c2)cnc1N)c1c(Cl)ccc(F)c1Cl [Crizotinib, reference compound]	HT29	68.8
COc1cccc(NC(=O)O[C@H]2CC[C@@]3(C)C(CC[C@]4(C)[C@@H]3C(=O)C=C3[C@@H]5C[C@@](C)(C(=O)O)CC[C@]5(C)CC[C@]34C)C2(C)C)c1 (stereo partly shown)	HT29	6.06

Ask: Would you mind telling me what inhibition at 2 µg/mL value was observed for CC1(C)C2CC[C@]3(C)[C@H](C(=O)C=C4[C@@H]5C[C@@](C)(C(=O)O)CC[C@]5(C)CC[C@]43C)[C@@]2(C)CC[C@@H]1OC(=O)Nc1cc(C(F)(F)F)cc(C(F)(F)F)c1 (stereo partly shown) ?
Result: 10.8

Ask: Which inhibition at 2 µg/mL reading was recorded for the compound CC1(C)C2CC[C@]3(C)[C@H](C(=O)C=C4[C@@H]5C[C@@](C)(C(=O)O)CC[C@]5(C)CC[C@]43C)[C@@]2(C)CC[C@@H]1OC(=O)CN1CCN(c2ccccn2)CC1 (stereo partly shown) ?
Result: 0

Ask: # query: inhibition at 2 µg/mL of entry CC1(C)C2CC[C@]3(C)[C@H](C(=O)C=C4[C@@H]5C[C@@](C)(C(=O)O)CC[C@]5(C)CC[C@]43C)[C@@]2(C)CC[C@@H]1OC(=O)Nc1cccc(C(F)(F)F)c1 (stereo partly shown)
Result: 24.8

Ask: Query: inhibition at 2 µg/mL; subject: CC1(C)C2CC[C@]3(C)[C@H](C(=O)C=C4[C@@H]5C[C@@](C)(C(=O)N6CCOCC6)CC[C@]5(C)CC[C@]43C)[C@@]2(C)CC[C@@H]1OC(=O)Nc1ccc(C(F)(F)F)cc1 (stereo partly shown)
Result: 13.7

Ask: Value lookup for inhibition at 2 µg/mL; key = Cc1ccc(NC(=O)O[C@H]2CC[C@@]3(C)C(CC[C@]4(C)[C@@H]3C(=O)C=C3[C@@H]5C[C@@](C)(C(=O)O)CC[C@]5(C)CC[C@]34C)C2(C)C)cc1Cl (stereo partly shown)
Result: 15.6
